# Experiment description: Volume of distribution at steady state in rat at 1 umol/kg, iv
# Assay type: ADME
# Condition set: in vivo, read-out: Vdss
Reported property: Vd (L/kg)

I = Cc1cc(-c2ccc(C(=O)[C@@H]3CCCC[C@H]3C(=O)Nc3cnn4c3C(=O)NCC4)cc2)[nH]n1
II = Cc1cc(-c2ccc(C(=O)[C@@H]3CCCC[C@H]3C(=O)Nc3cnn(C)c3C(=O)NOC(C)(C)C)cc2)[nH]n1
From the recorded data, which exceeds the other in Vd: I or II ? Selection: enter the item's label.
I
(I: 1.1 L/kg, II: 0.18 L/kg)

---

# Target of assay: Arachidonate 5-lipoxygenase-activating protein (Homo sapiens) (UniProt P20292)
# Sequence (whole entry): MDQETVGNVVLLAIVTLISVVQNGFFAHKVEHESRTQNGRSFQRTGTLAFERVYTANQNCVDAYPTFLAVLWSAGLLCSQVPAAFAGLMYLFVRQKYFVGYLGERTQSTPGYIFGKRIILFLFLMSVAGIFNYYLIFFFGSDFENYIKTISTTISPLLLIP
# Experiment description: Inhibition of FLAP in human whole blood assessed as reduction in calcium ionophore-stimulated LTB4 production preincubated for 4 hrs followed by calcium ionophore stimulation and measured after 20 mins by EIA
# Type: tissue-based
Reported property: fIC50 (nM)

a = Cc1cc(-c2ccc(C(=O)[C@@H]3CCCC[C@H]3C(=O)Nc3cnn4c3C(=O)NCC4)cc2)n[nH]1
b = Cc1cc(-c2ccc(C(=O)[C@@H]3CCCC[C@H]3C(=O)Nc3cn(C)nc3C(N)=O)cc2)[nH]n1
c = Cc1cc(-c2ccc(C(=O)[C@@H]3CCCC[C@H]3C(=O)Nc3cnn(C)c3C(=O)O)cc2)[nH]n1
d = Cc1cc(-c2ccc(C(=O)[C@@H]3CCCC[C@H]3C(=O)Nc3c(C)nn(C)c3C(N)=O)cc2)n[nH]1
e = Cc1cc(-c2ccc(C(=O)[C@@H]3CCCC[C@H]3C(=O)Nc3cnn(C)c3C(N)=O)cc2)[nH]n1
Put the items above in order of decreasing fIC50. Answer format: the labels, ordered as requested.
c, b, e, d, a
(c: 570 nM, b: 22 nM, e: 13 nM, d: 8 nM, a: 2 nM)

I = Cc1cc(-c2ccc(C(=O)[C@@H]3CCCC[C@H]3C(=O)Nc3cnn(C)c3S(N)(=O)=O)cc2)n[nH]1
II = Cc1cc(-c2ccc(C(=O)[C@@H]3CCCC[C@H]3C(=O)Nc3c(C(N)=O)n[nH]c3C)cc2)n[nH]1
Could you tell me which of these two has the smaller fIC50 figure? First: I Second: II Lab note: record the label of whichever item you select.
I
(I: 6.5 nM, II: 96 nM)

a = Cc1cc(-c2ccc(C(=O)[C@@H]3CCCC[C@H]3C(=O)Nc3cn(C)nc3C)cc2)n[nH]1
b = Cc1cc(-c2ccc(C(=O)[C@@H]3CCCC[C@H]3C(=O)Nc3cnn(C)c3C(=O)NOC(C)(C)C)cc2)[nH]n1
Could you kindly indicate whether a or b has the higher fIC50 value? Use the label to indicate which entry you chose.
a

a = Cc1cc(-c2ccc(C(=O)[C@@H]3CCCC[C@H]3C(=O)Nc3cnn(CC(N)=O)c3)cc2)[nH]n1
b = CCn1ncc(NC(=O)[C@@H]2CCCC[C@H]2C(=O)c2ccc(-c3cc(C)n[nH]3)cc2)c1C(N)=O
Two entries are listed, a and b . Which one carries the higher fIC50? # respond with the chosen item's label
a
